pIC50 values, listed per item
Test system: KB
Assay: In vitro cytotoxic activity against human KB cell line of epidermoid carcinoma
Assay type: functional, cell-based
Reminder that pIC50 is minus the log10 of a molar concentration.

Example compounds with recorded pIC50:
COc1cc(C(=O)c2cc(N)ccc2Cl)cc(OC)c1OC : 6.74
COc1ccc(N)cc1C(=O)c1cc(OC)c(OC)c(OC)c1 : 6.51
COc1cc(C(=O)c2cc(Cl)ccc2N)cc(OC)c1OC : 6.71
COc1ccc(/C=C\c2cc(OC)c(OC)c(OC)c2)cc1O [COMBRETASTATIN A4] : 8.68

Here's the next entry for you.
Challenge: Field: pIC50 (KB). Entry: CCOc1ccc(C(=O)c2cc(OC)c(OC)c(OC)c2)cc1N
Response given: 7.23

----------
Tested on: KB
Assay: In vitro cytotoxic activity against human KB-VIN10 cell line overexpressing P-gp 170/MDR
Type: functional, cell-based
Reported metric: IC50

Example compounds with recorded IC50:
COc1ccc(Cc2cc(OC)c(OC)c(OC)c2)cc1N : > 10000 nM
COc1ccc(C(=O)c2cc(OC)c(OC)c(OC)c2)c(N)c1 : 24 nM
COc1cc(C(=O)c2ccc(Cl)c(N)c2)cc(OC)c1OC : 3800 nM
COc1ccc(N)cc1C(=O)c1cc(OC)c(OC)c(OC)c1 : 324 nM

Challenge: Recorded IC50 for COc1cc(N)cc(C(=O)c2cc(OC)c(OC)c(OC)c2)c1 , please?
Response given: 307 nM

Challenge: Recorded IC50 for COc1cc(C(=O)c2cc(Cl)ccc2N)cc(OC)c1OC , please?
Response given: 162 nM

----------
pIC50 values, listed per item
System: KB
Test: In vitro cytotoxic activity against human KB-VIN10 cell line overexpressing P-gp 170/MDR
Assay type: functional, cell-based
Reminder that pIC50 is minus the log10 of a molar concentration.

COc1cc(C(=O)c2ccc(Cl)cc2N)cc(OC)c1OC : 6.10

Challenge: Recorded pIC50 for CCOc1ccc(C(=O)c2cc(OC)c(OC)c(OC)c2)cc1N , please?
Response given: 7.40

Challenge: Recorded pIC50 for CCCOc1ccc(C(=O)c2cc(OC)c(OC)c(OC)c2)cc1N , please?
Response given: 5.07

Challenge: Recorded pIC50 for COc1ccc(/C=C\c2cc(OC)c(OC)c(OC)c2)cc1N , please?
Response given: 8.12

Challenge: Recorded pIC50 for COc1ccc(N)c(C(=O)c2cc(OC)c(OC)c(OC)c2)c1 , please?
Response given: 6.45

Challenge: Recorded pIC50 for COc1cc(C(=O)c2cc(N)cc(Cl)c2)cc(OC)c1OC , please?
Response given: 5.54

Challenge: Recorded pIC50 for COc1ccc(C(=O)c2cc(OC)c(OC)c(OC)c2)cc1N , please?
Response given: 7.51

Challenge: Recorded pIC50 for COc1cc(C(=O)c2ccc(OC(C)C)c(N)c2)cc(OC)c1OC , please?
Response given: 6.10

Challenge: Recorded pIC50 for COc1ccc(C(=O)c2cc(OC)c(OC)c(OC)c2)cc1O , please?
Response given: 7.52

Challenge: Recorded pIC50 for COc1ccc(/C=C\c2cc(OC)c(OC)c(OC)c2)cc1O , please?
Response given: 8.62

Challenge: Recorded pIC50 for COc1cc(C(=O)c2cc(N)ccc2Cl)cc(OC)c1OC , please?
Response given: 6.90
